Values from patent US10035800B2

// Ki lookup, one value per entry
Biological target: BRD4 (BDII_E352-M457) (Homo sapiens, UniProt O60885)
Construct: protocol; made in house
Assay: TR-FRET bromodomain binding assay, second bromodomain of BRD4
Details: TR-FRET assay protocol G (compound 0.92 μM-15 pM); 30 nM probe
Answer format: numeric, nM implied, no suffix.

Reported Ki ( Cn1cc2c3c(c[nH]c3c1=O)C(C(=O)NCCCCc1ccccc1)N(c1ccc(F)cc1F)c1ccc(CS(C)(=O)=O)cc1-2 (stereo not shown) ) = 124

* * *

// Ki lookup, one value per entry
Target: BRD4 (BDII_E352-M457) (Homo sapiens)
Construct: protocol; made in house
Assay: TR-FRET bromodomain binding assay, second bromodomain of BRD4
Settings: TR-FRET assay protocol G (compound 0.92 μM-15 pM); 30 nM probe
Answer format: numeric, nM implied, no suffix.

Example entries and their recorded answers appear below.
INSERT INTO measurements (compound, number) VALUES
  ('Cn1cc2c3c(c[nH]c3c1=O)CN(CC1CC1)c1ccccc1-2', 7.68),
  ('CN(C)CCCC1c2c[nH]c3c(=O)n(C)cc(c23)-c2cc(CS(C)(=O)=O)ccc2N1c1ccc(F)cc1F (racemic)', 1.9);

Reported Ki ( Cn1cc2c3c(c[nH]c3c1=O)C(c1cccc(C#N)c1)N(c1ccc(F)cc1F)c1ccc(CS(C)(=O)=O)cc1-2 (stereo not shown) ) = 12.1

Reported Ki ( Cn1cc2c3c(c[nH]c3c1=O)C(C(=O)NCc1cocn1)N(c1ccc(F)cc1F)c1ccc(CS(C)(=O)=O)cc1-2 (stereo not shown) ) = 45.4

Reported Ki ( COCC(C)N1Cc2c[nH]c3c(=O)n(C)cc(c23)-c2cc(CS(C)(=O)=O)ccc21 (stereo not shown) ) = 10.2

Reported Ki ( Cc1ccc(S(=O)(=O)N2Cc3c[nH]c4c(=O)n(C)cc(c34)-c3cc(CS(C)(=O)=O)ccc32)cc1 ) = 369

Reported Ki ( Cn1cc(-c2[nH]c3c(=O)n(C)cc4c3c2CN(c2ccc(F)cc2F)c2ccc(S(C)(=O)=O)cc2-4)cn1 ) = 3.35

* * *

// pKi lookup, one value per entry
Target: BRD4 (BDII_E352-M457) (Homo sapiens)
Construct: protocol; made in house
Test: TR-FRET bromodomain binding assay, second bromodomain of BRD4
Details: TR-FRET assay protocol G (compound 0.92 μM-15 pM); 30 nM probe
Field pKi (float): negative decimal logarithm of the concentration in molar.

Example entries and their recorded answers appear below.
INSERT INTO assay_data (compound, endpoint_name, number) VALUES
  ('Cn1cc2c3c(c[nH]c3c1=O)CN(CCCc1ccccc1)c1c(F)cc(F)cc1-2', 'pKi', 7.88),
  ('CCNC(=O)c1[nH]c2c(=O)n(C)cc3c2c1CN(c1ccc(Cl)cc1)c1ccccc1-3', 'pKi', 8.87),
  ('Cn1cc2c3c(c[nH]c3c1=O)C(CN1C(=O)c3ccccc3C1=O)N(c1ccc(F)cc1F)c1ccc(CS(C)(=O)=O)cc1-2 (stereo not shown) [Example 205]', 'pKi', 7.54),
  ('CN(C)C(NCC1c2c[nH]c3c(=O)n(C)cc(c23)-c2cc(CS(C)(=O)=O)ccc2N1c1ccc(F)cc1F)=[N+](C)C (stereo not shown)', 'pKi', 7.84);

Reported pKi ( Cn1cc2c3c(c[nH]c3c1=O)CN(S(=O)(=O)c1ccccc1)c1ccc(CS(C)(=O)=O)cc1-2 ) = 6.56

Reported pKi ( Cn1cc2c3c(c[nH]c3c1=O)C(CC(C)(C)C)N(c1ccc(F)cc1F)c1ccc(CS(C)(=O)=O)cc1-2 (stereo not shown) ) = 8.32

Reported pKi ( CCN1CCCC(CN2Cc3c[nH]c4c(=O)n(C)cc(c34)-c3cc(CS(C)(=O)=O)ccc32)C1 (stereo not shown) ) = 7.97
